The listing below reports pKi for compounds tested on H1 (Homo sapiens).
Sequence (P35367 whole entry): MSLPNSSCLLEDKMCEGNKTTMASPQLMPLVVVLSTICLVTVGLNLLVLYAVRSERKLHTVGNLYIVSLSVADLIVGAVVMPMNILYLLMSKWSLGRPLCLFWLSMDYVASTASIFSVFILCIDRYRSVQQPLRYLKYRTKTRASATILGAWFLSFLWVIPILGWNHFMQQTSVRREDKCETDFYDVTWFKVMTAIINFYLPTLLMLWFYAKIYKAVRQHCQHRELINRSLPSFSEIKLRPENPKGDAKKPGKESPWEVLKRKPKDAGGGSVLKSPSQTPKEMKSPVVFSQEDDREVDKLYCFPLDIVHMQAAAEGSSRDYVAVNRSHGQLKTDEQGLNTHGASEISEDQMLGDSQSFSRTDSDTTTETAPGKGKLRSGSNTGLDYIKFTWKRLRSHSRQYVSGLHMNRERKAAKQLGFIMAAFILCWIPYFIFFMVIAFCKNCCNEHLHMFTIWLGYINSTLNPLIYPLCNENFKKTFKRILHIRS
# pKi is unitless: minus log10 of the molar concentration; print number only

Please look at this compound and report its pKi: `CC[N+]1([O-])CCN(C2=Nc3cc(Cl)ccc3Nc3ccccc32)CC1`
6.80

Please look at this compound and report its pKi: `CC(C)[N+]1([O-])CCN(C2=Nc3cc(Cl)ccc3Nc3ccccc32)CC1`
5.21

Please look at this compound and report its pKi: `CC(C)N1CCN(C2=Nc3cc(Cl)ccc3Nc3ccccc32)CC1`
8.34

Please look at this compound and report its pKi: `c1ccc2c(c1)N=C(N1CCNCC1)c1ccccc1N2`
8.22

* * *

# study-system: UniProtKB P35348
# Sequence (P35348 1-466): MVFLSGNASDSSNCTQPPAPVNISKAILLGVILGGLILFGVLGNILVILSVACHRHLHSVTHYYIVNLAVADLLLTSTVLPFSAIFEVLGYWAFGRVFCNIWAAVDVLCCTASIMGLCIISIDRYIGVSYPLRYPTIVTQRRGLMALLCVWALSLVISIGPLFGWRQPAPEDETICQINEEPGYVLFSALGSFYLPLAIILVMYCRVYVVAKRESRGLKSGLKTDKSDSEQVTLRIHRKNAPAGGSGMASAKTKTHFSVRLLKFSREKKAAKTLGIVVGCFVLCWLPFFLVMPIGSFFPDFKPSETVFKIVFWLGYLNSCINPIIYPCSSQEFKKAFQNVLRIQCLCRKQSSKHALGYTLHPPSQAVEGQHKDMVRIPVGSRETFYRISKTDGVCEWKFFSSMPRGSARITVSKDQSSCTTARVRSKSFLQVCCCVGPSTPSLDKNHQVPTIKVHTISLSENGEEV
Form field: pKi (one value per entry).
# pKi is unitless: minus log10 of the molar concentration; print number only

Guide cases for pKi, answers given:
[
  {
    "compound": "c1ccc2c(c1)N=C(N1CCNCC1)c1ccccc1N2 [Compound 21]",
    "pKi": 6.55
  },
  {
    "compound": "CC(C)N1CCN(C2=Nc3cc(Cl)ccc3Nc3ccccc32)CC1 [Compound 4c]",
    "pKi": 7.43
  }
]

# input for lookup
Please look at this compound and report its pKi: CC(C)[N+]1([O-])CCN(C2=Nc3cc(Cl)ccc3Nc3ccccc32)CC1 [Compound 5c]
6.49

* * *

# study-system: hM3Dq (Homo sapiens, UniProt P20309, A239G/Y149C)
# Sequence (P20309 whole entry Y149C/A239G): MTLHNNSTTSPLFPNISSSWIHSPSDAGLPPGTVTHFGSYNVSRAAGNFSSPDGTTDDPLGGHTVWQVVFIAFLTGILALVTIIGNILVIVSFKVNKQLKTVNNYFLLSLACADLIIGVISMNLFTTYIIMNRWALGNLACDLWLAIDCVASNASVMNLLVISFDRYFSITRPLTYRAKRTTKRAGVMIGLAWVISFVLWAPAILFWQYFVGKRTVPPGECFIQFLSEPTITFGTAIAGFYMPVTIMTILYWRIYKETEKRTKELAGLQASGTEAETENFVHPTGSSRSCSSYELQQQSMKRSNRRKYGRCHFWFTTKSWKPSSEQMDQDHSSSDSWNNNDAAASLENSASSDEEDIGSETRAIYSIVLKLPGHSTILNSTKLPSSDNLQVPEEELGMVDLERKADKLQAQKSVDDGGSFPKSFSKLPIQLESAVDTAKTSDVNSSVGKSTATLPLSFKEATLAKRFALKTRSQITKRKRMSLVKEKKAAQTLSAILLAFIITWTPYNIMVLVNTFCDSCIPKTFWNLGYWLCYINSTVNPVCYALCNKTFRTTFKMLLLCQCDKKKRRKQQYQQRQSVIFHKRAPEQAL
# measurement-notes: cell-based
# Type: cell-based

[
  {
    "molecular-string": "O=C1NC(=O)C2(CCN(C3=Nc4cc(Cl)ccc4Nc4ccccc43)CC2)N1",
    "agonist activity for hM3Dq (in words)": "did not activate"
  },
  {
    "molecular-string": "NC1(C(=O)O)CCN(C2=Nc3cc(Cl)ccc3Nc3ccccc32)CC1",
    "agonist activity for hM3Dq (in words)": "did not activate"
  }
]

* * *

# study-system: 5HT2A (Homo sapiens, UniProt P28223)
# Sequence (P28223 whole entry, species assumed): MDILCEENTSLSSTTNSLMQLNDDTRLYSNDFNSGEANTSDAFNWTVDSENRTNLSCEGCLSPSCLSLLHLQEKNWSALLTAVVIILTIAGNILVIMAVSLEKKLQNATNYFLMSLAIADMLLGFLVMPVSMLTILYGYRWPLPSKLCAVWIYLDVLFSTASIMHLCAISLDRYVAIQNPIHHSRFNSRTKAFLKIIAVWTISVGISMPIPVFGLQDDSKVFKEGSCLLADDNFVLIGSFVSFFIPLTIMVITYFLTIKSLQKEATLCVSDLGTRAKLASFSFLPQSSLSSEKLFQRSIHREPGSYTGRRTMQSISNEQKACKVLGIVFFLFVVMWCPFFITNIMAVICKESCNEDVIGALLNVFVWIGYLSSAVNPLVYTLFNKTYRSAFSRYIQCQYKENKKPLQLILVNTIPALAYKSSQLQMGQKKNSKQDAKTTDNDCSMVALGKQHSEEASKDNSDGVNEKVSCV
# measurement-notes: biochemical
# Type: binding
# recorded-conditions: Ki 5HT2A, radioligand binding
Form field: pKi (one value per entry).
# pKi is unitless: minus log10 of the molar concentration; print number only

[
  {
    "compound": "c1ccc2c(c1)N=C(N1CCNCC1)c1ccccc1N2 [Compound 21]",
    "pKi": 7.18
  },
  {
    "compound": "CC[N+]1([O-])CCN(C2=Nc3cc(Cl)ccc3Nc3ccccc32)CC1 [Compound 5b]",
    "pKi": 5.72
  }
]

Please look at this compound and report its pKi: CC(C)[N+]1([O-])CCN(C2=Nc3cc(Cl)ccc3Nc3ccccc32)CC1 [Compound 5c]
5.28
